tested-system: CYP1A2 (Homo sapiens)
Sequence (P05177 whole entry): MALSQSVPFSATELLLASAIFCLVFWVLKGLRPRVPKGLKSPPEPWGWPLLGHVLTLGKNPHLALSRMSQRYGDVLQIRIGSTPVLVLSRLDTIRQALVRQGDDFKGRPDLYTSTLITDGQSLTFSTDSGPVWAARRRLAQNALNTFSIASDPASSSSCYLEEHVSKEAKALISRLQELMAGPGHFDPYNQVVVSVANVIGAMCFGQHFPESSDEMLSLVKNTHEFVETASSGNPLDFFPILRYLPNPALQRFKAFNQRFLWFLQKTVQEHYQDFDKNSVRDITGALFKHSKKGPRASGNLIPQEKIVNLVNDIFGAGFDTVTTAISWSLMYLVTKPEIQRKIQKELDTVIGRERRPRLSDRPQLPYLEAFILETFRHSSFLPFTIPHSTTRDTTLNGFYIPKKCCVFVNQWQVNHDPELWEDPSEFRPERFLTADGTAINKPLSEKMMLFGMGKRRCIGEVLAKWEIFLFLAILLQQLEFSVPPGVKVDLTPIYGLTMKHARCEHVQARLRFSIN
test-name: Inhibition of CYP1A2 in human liver microsomes at 10 uM using phenacetin as substrate for 5 mins followed by NADPH addition and measured after 10 mins by LC/MS/MS analysis relative to control
Format: ADME, Microsome
measurement-conditions: probe phenacetin, time 15 min
Non-standard residues stand in square brackets, D forms with d. Residues, ends and D or L forms follow the SMILES beside them. *: point of attachment. Benzoyl(4-OPh(4-CONH2)) = NC(=O)c1ccc(Oc2ccc(C(=O)*)cc2)cc1; NMeE = CN[C@@H](CCC(=O)O)C(=O)O; β3hP = O=C(O)C[C@@H]1CCCN1; Dab = NCC[C@H](N)C(=O)O; Ava = NCCCCC(=O)O
quantity-measured: inhibition at […], 10 µM (%)

# molecule, readout-value
rows = [
    ("CC(C)C[C@H](NC(=O)[C@H](CCN)NC(=O)[C@H](CC(=O)O)NC(=O)[C@H](CCC(=O)O)NC(=O)CCCCNC(=O)c1ccc(Oc2ccc(C(N)=O)cc2)cc1)C(=O)N(C)[C@@H](CCC(=O)O)C(=O)N1CCC[C@H]1CC(N)=O ({Benzoyl(4-OPh(4-CONH2))-Ava}-ED[Dab]L[NMeE][β3hP]-NH2)", -4.2),
]

----------
Species on record: Homo sapiens
test-name: Selectivity ratio of IC50 for recombinant human MMP12 to IC50 for recombinant human MMP2
Non-standard residues stand in square brackets, D forms with d. Residues, ends and D or L forms follow the SMILES beside them. *: point of attachment. Benzenesulfonyl(4-OPh) = O=S(=O)(c1ccc(Oc2ccccc2)cc1)*; Benzenesulfonyl(4-Ph) = O=S(=O)(c1ccc(-c2ccccc2)cc1)*; X1 = O=C(CCCCS(=O)(=O)c1ccc(Oc2ccccc2)cc1)*; X2 = O=C(c1ccc(Oc2ccc(F)cc2)cc1)*; NMeI = CC[C@H](C)[C@H](NC)C(=O)O; NMeE = CN[C@@H](CCC(=O)O)C(=O)O; NMeM = CN[C@@H](CCSC)C(=O)O; NMeV = CN[C@H](C(=O)O)C(C)C; β3hP = O=C(O)C[C@@H]1CCCN1; Dab = NCC[C@H](N)C(=O)O; GABA = NCCCC(=O)O; βAla = NCCC(=O)O
Binary call on Ratio IC50: met from 100 upward, not met beneath that.

# compound, class-assignment
data = [
    ("CSCC[C@H](NC(=O)[C@H](CC(C)C)NC(=O)[C@H](C)NC(=O)[C@H](CC(=O)O)NC(=O)[C@H](CC(N)=O)NC(=O)CCCCS(=O)(=O)c1ccc(Oc2ccccc2)cc1)C(=O)N1CCC[C@H]1C(N)=O (X1-NDALMP-NH2)", "not met"),
    ("CSCC[C@H](NC(=O)[C@H](CC(C)C)NC(=O)[C@H](C)NC(=O)[C@H](CC(=O)O)NC(=O)[C@H](CC(N)=O)NC(=O)CCCNS(=O)(=O)c1ccc(Oc2ccccc2)cc1)C(=O)N1CCC[C@H]1C(N)=O ({Benzenesulfonyl(4-OPh)-GABA}-NDALMP-NH2)", "met"),
    ("CC(C)C[C@H](NC(=O)[C@H](C)NC(=O)[C@H](CC(=O)O)NC(=O)[C@H](CC(N)=O)NC(=O)CCCNS(=O)(=O)c1ccc(Oc2ccccc2)cc1)C(=O)N(C)[C@H](C(=O)N1CCC[C@H]1CC(N)=O)C(C)C ({Benzenesulfonyl(4-OPh)-GABA}-NDAL[NMeV][β3hP]-NH2)", "met"),
    ("CC(C)C[C@H](NC(=O)[C@H](CCN)NC(=O)[C@H](CC(=O)O)NC(=O)[C@H](CC(N)=O)NC(=O)CCCNC(=O)c1ccc(Oc2ccc(F)cc2)cc1)C(=O)N(C)[C@@H](CCC(=O)O)C(=O)N1CCC[C@H]1CC(N)=O ({X2-GABA}-ND[Dab]L[NMeE][β3hP]-NH2)", "met"),
    ("CSCC[C@@H](C(=O)N1CCC[C@H]1C(N)=O)N(C)C(=O)[C@H](CC(C)C)NC(=O)[C@H](C)NC(=O)[C@H](CC(=O)O)NC(=O)[C@H](CC(N)=O)NC(=O)CCCNS(=O)(=O)c1ccc(Oc2ccccc2)cc1 ({Benzenesulfonyl(4-OPh)-GABA}-NDAL[NMeM]P-NH2)", "not met"),
    ("CSCC[C@H](NC(=O)[C@H](CC(C)C)NC(=O)[C@H](C)NC(=O)[C@H](CC(=O)O)NC(=O)[C@H](CC(N)=O)NC(=O)CCNS(=O)(=O)c1ccc(-c2ccccc2)cc1)C(=O)N1CCC[C@H]1C(N)=O ({Benzenesulfonyl(4-Ph)-βAla}-NDALMP-NH2)", "not met"),
    ("CC[C@H](C)[C@@H](C(=O)N1CCC[C@H]1CC(N)=O)N(C)C(=O)[C@H](CC(C)C)NC(=O)[C@H](C)NC(=O)[C@H](CC(=O)O)NC(=O)[C@H](CC(N)=O)NC(=O)CCCNS(=O)(=O)c1ccc(Oc2ccccc2)cc1 ({Benzenesulfonyl(4-OPh)-GABA}-NDAL[NMeI][β3hP]-NH2)", "not met"),
]

----------
test-name: Solubility of the compound in phosphate buffer at pH 9 by HPLC analysis
Type: physicochemical
Non-standard residues stand in square brackets, D forms with d. Residues, ends and D or L forms follow the SMILES beside them. *: point of attachment. Benzoyl(4-OPh(4-CONH2)) = NC(=O)c1ccc(Oc2ccc(C(=O)*)cc2)cc1; NMeE = CN[C@@H](CCC(=O)O)C(=O)O; β3hP = O=C(O)C[C@@H]1CCCN1; Dab = NCC[C@H](N)C(=O)O; Ava = NCCCCC(=O)O

# compound, solubility
records = [
    ("CC(C)C[C@H](NC(=O)[C@H](CCN)NC(=O)[C@H](CC(=O)O)NC(=O)[C@H](CCC(=O)O)NC(=O)CCCCNC(=O)c1ccc(Oc2ccc(C(N)=O)cc2)cc1)C(=O)N(C)[C@@H](CCC(=O)O)C(=O)N1CCC[C@H]1CC(N)=O ({Benzoyl(4-OPh(4-CONH2))-Ava}-ED[Dab]L[NMeE][β3hP]-NH2)", "> 167 mg/mL"),
]

----------
test-name: Volume of distribution at steady state in fasted Sprague-Dawley rat at 1 mg/kg, iv by LC-MS/MS analysis
Assay type: ADME, organism-based
measurement-conditions: in vivo, read-out: Vdss
Non-standard residues stand in square brackets, D forms with d. Residues, ends and D or L forms follow the SMILES beside them. *: point of attachment. Benzoyl(4-OPh(4-CONH2)) = NC(=O)c1ccc(Oc2ccc(C(=O)*)cc2)cc1; NMeE = CN[C@@H](CCC(=O)O)C(=O)O; β3hP = O=C(O)C[C@@H]1CCCN1; Dab = NCC[C@H](N)C(=O)O; Ava = NCCCCC(=O)O
quantity-measured: Vd (L/kg)

# compound, quantity-measured, unit-label, readout-value
measured = [
    ("CC(C)C[C@H](NC(=O)[C@H](CCN)NC(=O)[C@H](CC(=O)O)NC(=O)[C@H](CCC(=O)O)NC(=O)CCCCNC(=O)c1ccc(Oc2ccc(C(N)=O)cc2)cc1)C(=O)N(C)[C@@H](CCC(=O)O)C(=O)N1CCC[C@H]1CC(N)=O ({Benzoyl(4-OPh(4-CONH2))-Ava}-ED[Dab]L[NMeE][β3hP]-NH2)", "Vd", "L/kg", 0.233),
]

----------
tested-system: 72 kDa type IV collagenase (Homo sapiens, UniProt P08253)
Sequence (P08253 whole entry): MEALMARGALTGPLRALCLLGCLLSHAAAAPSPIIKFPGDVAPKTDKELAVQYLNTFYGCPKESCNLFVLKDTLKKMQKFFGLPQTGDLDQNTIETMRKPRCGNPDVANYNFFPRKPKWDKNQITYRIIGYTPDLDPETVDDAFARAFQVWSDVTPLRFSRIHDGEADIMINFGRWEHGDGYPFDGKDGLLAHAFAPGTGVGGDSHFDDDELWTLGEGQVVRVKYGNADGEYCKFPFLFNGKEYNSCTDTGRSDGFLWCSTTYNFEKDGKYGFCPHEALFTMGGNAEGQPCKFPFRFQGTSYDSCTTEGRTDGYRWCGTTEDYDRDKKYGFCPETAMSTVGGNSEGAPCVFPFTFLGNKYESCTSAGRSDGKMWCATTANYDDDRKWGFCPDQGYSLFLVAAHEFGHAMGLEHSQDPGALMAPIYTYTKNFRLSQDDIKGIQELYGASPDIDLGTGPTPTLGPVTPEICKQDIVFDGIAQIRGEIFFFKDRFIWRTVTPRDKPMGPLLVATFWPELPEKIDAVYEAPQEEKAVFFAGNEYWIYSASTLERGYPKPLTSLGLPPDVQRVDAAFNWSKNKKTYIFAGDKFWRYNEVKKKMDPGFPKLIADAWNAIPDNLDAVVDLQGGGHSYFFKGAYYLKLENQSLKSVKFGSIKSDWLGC
Non-standard residues stand in square brackets, D forms with d. Residues, ends and D or L forms follow the SMILES beside them. *: point of attachment. Benzoyl(4-OPh(4-CONH2)) = NC(=O)c1ccc(Oc2ccc(C(=O)*)cc2)cc1; Benzenesulfonyl(4-OPh) = O=S(=O)(c1ccc(Oc2ccccc2)cc1)*; Benzenesulfonyl(4-Ph) = O=S(=O)(c1ccc(-c2ccccc2)cc1)*; X2 = O=C(c1ccc(Oc2ccc(F)cc2)cc1)*; NMeI = CC[C@H](C)[C@H](NC)C(=O)O; NMeE = CN[C@@H](CCC(=O)O)C(=O)O; NMeM = CN[C@@H](CCSC)C(=O)O; β3hP = O=C(O)C[C@@H]1CCCN1; Dab = NCC[C@H](N)C(=O)O; GABA = NCCCC(=O)O; βAla = NCCC(=O)O
Lab note: cut-off is 200 pM. Strictly less in IC50 is yes. Exactly 200 pM or more is no.

# compound, tested-system, class-assignment
measured = [
    ("CC(C)C[C@H](NC(=O)[C@H](CCN)NC(=O)[C@H](CC(=O)O)NC(=O)[C@H](CC(N)=O)NC(=O)CCCNC(=O)c1ccc(Oc2ccc(F)cc2)cc1)C(=O)N(C)[C@@H](CCC(=O)O)C(=O)N1CCC[C@H]1CC(N)=O ({X2-GABA}-ND[Dab]L[NMeE][β3hP]-NH2)", "72 kDa type IV collagenase (Homo sapiens, UniProt P08253)", "yes"),
    ("CC[C@H](C)[C@@H](C(=O)N1CCC[C@H]1C(N)=O)N(C)C(=O)[C@H](CC(C)C)NC(=O)[C@H](C)NC(=O)[C@H](CC(=O)O)NC(=O)[C@H](CC(N)=O)NC(=O)CCCNS(=O)(=O)c1ccc(Oc2ccccc2)cc1 ({Benzenesulfonyl(4-OPh)-GABA}-NDAL[NMeI]P-NH2)", "72 kDa type IV collagenase (Homo sapiens, UniProt P08253)", "yes"),
    ("CC(C)C[C@H](NC(=O)[C@H](CCN)NC(=O)[C@H](CC(=O)O)NC(=O)[C@H](CC(N)=O)NC(=O)CCCNC(=O)c1ccc(Oc2ccc(C(N)=O)cc2)cc1)C(=O)N(C)[C@@H](CCC(=O)O)C(=O)N1CCC[C@H]1CC(N)=O ({Benzoyl(4-OPh(4-CONH2))-GABA}-ND[Dab]L[NMeE][β3hP]-NH2)", "72 kDa type IV collagenase (Homo sapiens, UniProt P08253)", "yes"),
    ("CSCC[C@H](NC(=O)[C@H](CC(C)C)NC(=O)[C@H](C)NC(=O)[C@H](CC(=O)O)NC(=O)[C@H](CC(N)=O)NC(=O)CCCNS(=O)(=O)c1ccc(-c2ccccc2)cc1)C(=O)N1CCC[C@H]1C(N)=O ({Benzenesulfonyl(4-Ph)-GABA}-NDALMP-NH2)", "72 kDa type IV collagenase (Homo sapiens, UniProt P08253)", "no"),
    ("CC(C)C[C@H](NC(=O)[C@H](CCN)NC(=O)[C@H](CC(=O)O)NC(=O)[C@H](CC(N)=O)NC(=O)CCNC(=O)c1ccc(Oc2ccc(C(N)=O)cc2)cc1)C(=O)N(C)[C@@H](CCC(=O)O)C(=O)N1CCC[C@H]1CC(N)=O ({Benzoyl(4-OPh(4-CONH2))-βAla}-ND[Dab]L[NMeE][β3hP]-NH2)", "72 kDa type IV collagenase (Homo sapiens, UniProt P08253)", "no"),
    ("CSCC[C@H](NC(=O)[C@H](CC(C)C)NC(=O)[C@H](C)NC(=O)[C@H](CC(=O)O)NC(=O)[C@H](CC(N)=O)NC(=O)CNS(=O)(=O)c1ccc(-c2ccccc2)cc1)C(=O)N1CCC[C@H]1C(N)=O ({Benzenesulfonyl(4-Ph)}-GNDALMP-NH2)", "72 kDa type IV collagenase (Homo sapiens, UniProt P08253)", "no"),
    ("CSCC[C@@H](C(=O)N1CCC[C@H]1CC(N)=O)N(C)C(=O)[C@H](CC(C)C)NC(=O)[C@H](C)NC(=O)[C@H](CC(=O)O)NC(=O)[C@H](CC(N)=O)NC(=O)CCCNS(=O)(=O)c1ccc(Oc2ccccc2)cc1 ({Benzenesulfonyl(4-OPh)-GABA}-NDAL[NMeM][β3hP]-NH2)", "72 kDa type IV collagenase (Homo sapiens, UniProt P08253)", "yes"),
]
